assay: CCTE_Deisenroth_DEVTOX-GLR_Meso_CellCount: Viability Assessment in CCTE's DevTox GLR-Meso Assay, Deisenroth Lab
Active and inactive are the calls of the source. How the source made its calls: active means hit-call score of the fitted dose curve at least 0.9, where 1 is the maximum; inactive means score below 0.9.
Labels: T (active), F (inactive)

| compound | assigned-class |
| --- | --- |
| O=C1NC(=O)C(c2ccccc2)(c2ccccc2)N1 | T |
| Nc1cccc2c1C(=O)N(C1CCC(=O)NC1=O)C2=O (stereo not drawn) | F |
| CS(=O)(=O)OCCCCOS(C)(=O)=O | T |

====

Assay: CCTE_Deisenroth_DEVTOX-GLR_Meso_CellCount: Viability Assessment in CCTE's DevTox GLR-Meso Assay, Deisenroth Lab
Method: CCTE_Deisenroth_DEVTOX-GLR_Meso assay is a cell-based, multiplex-readout assay that uses RUES2-GLR, a human pluripotent cell line, with measurements taken at 48 hours after chemical dosing in a 384-well microplateCCTE_Deisenroth_DEVTOX-GLR_Meso_CellCount is 1 of 4 assay components calculated from the CCTE_Deisenroth_DEVTOX-GLR_Meso assay and it measures cell count. […]
Active and inactive are the calls of the source. How the source made its calls: active means hit-call score of the fitted dose curve at least 0.9, where 1 is the maximum; inactive means score below 0.9.
Outcomes: active, inactive

| compound | assigned-class |
| --- | --- |
| CC1=C(/C=C/C(C)=C/C=C/C(C)=C/C(=O)O)C(C)(C)CCC1 | active |
| CC1=C(/C=C/C(C)=C/C=C/C(C)=C\C(=O)O)C(C)(C)CCC1 | active |
| CCN(CC)CCNC(=O)c1c(C)[nH]c(/C=C2\C(=O)Nc3ccc(F)cc32)c1C | active |
| O=c1[nH]cc(F)c(=O)[nH]1 | active |
| CC(C)(c1ccc(O)cc1)c1ccc(O)cc1 | active |
| CC/C(=C(/CC)c1ccc(O)cc1)c1ccc(O)cc1 | active |
| O=C1NS(=O)(=O)c2ccccc21 | inactive |
| CCCC(CCC)C(=O)O | inactive |
| O=C1CCC(N2C(=O)c3ccccc3C2=O)C(=O)N1 (stereo unspecified) | inactive |
| CC1(C)S[C@@H]2[C@H](NC(=O)Cc3ccccc3)C(=O)N2[C@H]1C(=O)O | inactive |
| CN(Cc1cnc2nc(N)nc(N)c2n1)c1ccc(C(=O)N[C@@H](CCC(=O)O)C(=O)O)cc1 | inactive |
